Origin of values: patent US10017506B2

assay system: Human ATX protein (Homo sapiens)
Construct: made in house
protocol details: ATX biochemical FRET assay with FS-3 substrate
applied conditions: FRET substrate FS-3 2 μM, ATX 1.0 μg/mL, 30 minutes pre-incubation, 2 hours at room temperature; read-out: IC50
pIC50: −log10 of the molar value.
Below: a set of entries, each annotated with reported pIC50.

# example entries with known answers
CC[C@H]1CC[C@@H](Oc2ccc3ccc([C@H](C)N[C@H]4C[C@@H](C(=O)O)C4(C)C)cc3c2C(F)(F)F)CC1 [Example 118b]	≥ 7.00
CC1(C)C(NCc2ccc3ccc(O[C@H]4CC[C@@H](C(F)(F)F)CC4)c(C(F)(F)F)c3c2)CC1C(=O)O (stereo partly drawn)	≥ 6.60
CC(N[C@H]1CC[C@@H](C(=O)O)CC1)c1ccc2ccc(O[C@H]3CC[C@@H](C)CC3)c(C(F)(F)F)c2c1 (stereo partly drawn)	≥ 7.00
CC1(C)[C@@H](NCc2ccc3ccc(O[C@H]4CC[C@@H](C)CC4)c(C#N)c3c2)C[C@H]1C(=O)O (relative stereo)	≥ 6.60
CC(N[C@H]1C[C@@H](C(=O)O)C1(C)C)c1ccc2ccc(O[C@H]3CC[C@@H](C)CC3)c(C(F)(F)F)c2c1 (stereo partly drawn)	≥ 7.00

// next item, pIC50 requested
Incoming: Record request: pIC50 value, item CCC(N[C@H]1C[C@@H](C(=O)O)C1(C)C)c1ccc2ccc(O[C@H]3CC[C@@H](C(F)(F)F)CC3)c(Cl)c2c1 (stereo partly drawn)
Outgoing: ≥ 6.30
